system: A498; assay: NCI tumour cell line growth inhibition, 48 h
Calls of active or inactive are those of the source. Cut-off read from the data, not from the text of the source: active = GI50 up to about 1.1 µM and inactive = higher.

Molecule: Nc1cc(F)ccc1CC(=O)O
System Name: A498
GI50: > 100 µM (inactive)
//
Molecule: CN1CCN(C)C12C=c1ccccc1=CC21CC1
System Name: A498
GI50: > 100 µM (inactive)
//
Molecule: CCOC(=O)c1cc(Br)c(-c2onc(C)c2Br)[nH]1
System Name: A498
GI50: 48.2 µM (inactive)
//
Molecule: N#Cc1c(-c2ccccc2)cc(-c2ccccc2)n(C2OC(CO)C(O)C(O)C2O)c1=S (stereo not given)
System Name: A498
GI50: 19.7 µM (inactive)
//
Molecule: O=C(C(Cl)=C(N1CCOCC1)N1CCOCC1)C(Cl)Cl
System Name: A498
GI50: > 100 µM (inactive)
//
Molecule: O=P(O)(O)OC1O[C@H](CO)[C@H](O)[C@H](O)[C@H]1O (stereo not given in full)
System Name: A498
GI50: > 100 µM (inactive)
//
Molecule: O=c1oc2ccc([N+](=O)[O-])cc2cc1Br
System Name: A498
GI50: > 100 µM (inactive)
//
Molecule: Cc1cc([N+](=O)[O-])ccc1/N=N/C(=O)NNc1ccc([N+](=O)[O-])cc1C
System Name: A498
GI50: 13.6 µM (inactive)
//
Molecule: CC(=O)c1c(C)cn(S(=O)(=O)NC(=O)Nc2nncs2)c1C
System Name: A498
GI50: > 100 µM (inactive)
//
Molecule: O=C1/C(=C/c2cccc([N+](=O)[O-])c2)N=C(c2ccccc2)N1c1ccc2c(c1)Sc1cc(N3C(=O)/C(=C/c4cccc([N+](=O)[O-])c4)N=C3c3ccccc3)ccc1N2
System Name: A498
GI50: 23.6 µM (inactive)
